conditions: 323.15 K; 101 kPa; Liquid
Please respond with reported mass density for every item in the list.
Return type: number; implicit unit kg/m3.

For this compound ( CN1CCCC1=O [N-methylpyrrolidone] ), measured mass density is 1005.62

Entry CCc1ccccc1 [ethylbenzene] — recorded mass density = 840.35

Per the records, this compound ( c1ccccc1 [benzene] ) has mass density equal to 846.55

Entry Cc1ccccc1 [toluene] , mass density reported as 838.91

src = the NIST ThermoML archive (doi:10.1016/j.jct.2006.05.006)
